The reported measurements were obtained from patent US20080004317A1.

protocol-details: Solubility in 0.1M phosphate buffer, pH 7.4
Type: physicochemical
experimental-context: aqueous buffer, thermodynamic from solid, pH 7.4, 20° C.
solubility values by entry
Write it as a number; the unit µM goes unstated.

Look over these answered cases.
C[C@]1(CS(=O)(=O)N2CC=C(C#Cc3ccc(C(F)(F)F)nc3)CC2)NC(=O)NC1=O = 41
CCc1ccc(C#CC2=CCN(S(=O)(=O)C[C@@]3(C)NC(=O)NC3=O)CC2)cn1 = 1300

Which solubility is reported for this compound? C[C@]1(CS(=O)(=O)N2CC=C(C#Cc3ccccn3)CC2)NC(=O)NC1=O [WO 02/074767, page 119, reference compound]
1600

###

measured-target: MMP8 (Homo sapiens, UniProt P22894)
Construct: purchased Calbiochem
Sequence (P22894 101-467): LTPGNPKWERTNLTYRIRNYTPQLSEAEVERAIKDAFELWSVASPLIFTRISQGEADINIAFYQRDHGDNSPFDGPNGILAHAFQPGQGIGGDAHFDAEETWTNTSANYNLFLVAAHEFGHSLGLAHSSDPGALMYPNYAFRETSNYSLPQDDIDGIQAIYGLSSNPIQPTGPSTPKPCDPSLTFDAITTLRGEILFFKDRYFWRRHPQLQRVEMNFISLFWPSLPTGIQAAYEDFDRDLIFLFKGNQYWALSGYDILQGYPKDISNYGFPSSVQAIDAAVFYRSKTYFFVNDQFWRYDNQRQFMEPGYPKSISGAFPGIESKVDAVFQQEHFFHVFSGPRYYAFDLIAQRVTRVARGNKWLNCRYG
protocol-details: MMP8 isolated enzyme assay
Type: biochemical
experimental-context: read-out: hMMP8 IC50
recorded-endpoint: pIC50
pIC50 field: float, defined as -log10 of concentration (mol/L).

C[C@]1(CS(=O)(=O)N2CC=C(C#Cc3ccc(C(F)(F)F)nc3)CC2)NC(=O)NC1=O = 6.37

API: the following record is the query input.
Which pIC50 is reported for this compound? `CCc1ccc(C#CC2=CCN(S(=O)(=O)C[C@@]3(C)NC(=O)NC3=O)CC2)cn1`
6.11

###

measured-target: Recombinant human MMP12 catalytic domain (Homo sapiens, UniProt P39900)
Construct: Recombinant human MMP12 catalytic domain
Sequence (P39900 106-263 limits assumed): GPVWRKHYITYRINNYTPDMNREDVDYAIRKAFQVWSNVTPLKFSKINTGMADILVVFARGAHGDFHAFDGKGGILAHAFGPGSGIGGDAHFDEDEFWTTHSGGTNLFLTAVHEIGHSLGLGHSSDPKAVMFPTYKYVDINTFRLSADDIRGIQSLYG
protocol-details: MMP12 isolated enzyme assay
experimental-context: read-out: hMMP12 IC50
recorded-endpoint: pIC50
pIC50 field: float, defined as -log10 of concentration (mol/L).

Look over these answered cases.
C[C@]1(CS(=O)(=O)N2CC=C(C#Cc3ccc(C(F)(F)F)nc3)CC2)NC(=O)NC1=O = 8.30
CCc1ccc(C#CC2=CCN(S(=O)(=O)C[C@@]3(C)NC(=O)NC3=O)CC2)cn1 = 8.52

API: the following record is the query input.
Which pIC50 is reported for this compound? C[C@]1(CS(=O)(=O)N2CC=C(C#Cc3ccccn3)CC2)NC(=O)NC1=O [WO 02/074767, page 119, reference compound]
6.85

###

measured-target: Recombinant human MMP14 catalytic domain (Homo sapiens, UniProt P50281)
Construct: Recombinant human MMP14 catalytic domain
protocol-details: MMP14 isolated enzyme assay
experimental-context: read-out: hMMP14 IC50
pIC50: −log10 of the molar value.
recorded-endpoint: pIC50

C[C@]1(CS(=O)(=O)N2CC=C(C#Cc3ccc(C(F)(F)F)nc3)CC2)NC(=O)NC1=O [Example 5] = < 5.00

Which pIC50 is reported for this molecule? C[C@]1(CS(=O)(=O)N2CC=C(C#Cc3ccccn3)CC2)NC(=O)NC1=O [WO 02/074767, page 119, reference compound]
< 6.00

Consider next the molecule CCc1ccc(C#CC2=CCN(S(=O)(=O)C[C@@]3(C)NC(=O)NC3=O)CC2)cn1 [Example 4] in the same way.
< 5.00

###

measured-target: Recombinant human MMP9 catalytic domain (Homo sapiens, UniProt P14780)
Sequence (P14780 with tags, fused parts or gaps DEL216-390 limits assumed): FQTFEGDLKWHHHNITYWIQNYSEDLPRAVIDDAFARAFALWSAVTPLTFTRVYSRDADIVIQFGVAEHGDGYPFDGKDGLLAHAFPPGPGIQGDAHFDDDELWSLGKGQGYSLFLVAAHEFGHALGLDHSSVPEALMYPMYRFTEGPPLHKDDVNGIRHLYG
protocol-details: MMP9 isolated enzyme assay
experimental-context: read-out: hMMP9 IC50
Protocol: Recombinant human MMP9 catalytic domain was expressed and then purified by Zn chelate column chromatography followed by hydroxamate affinity column chromatography. […] Activity is determined by measuring the fluorescence at λex 320 nm and λem 405 nm. Percent inhibition is calculated as follows: % Inhibition is equal to the [Fluorescenceplus inhibitor−Fluorescencebackground] divided by the [Fluorescenceminus inhibitor−Fluorescencebackground]. […]
recorded-endpoint: pIC50
pIC50 field: float, defined as -log10 of concentration (mol/L).

Look over these answered cases.
CCc1ccc(C#CC2=CCN(S(=O)(=O)C[C@@]3(C)NC(=O)NC3=O)CC2)cn1 [Example 4] = 8.10
C[C@]1(CS(=O)(=O)N2CC=C(C#Cc3ccc(C(F)(F)F)nc3)CC2)NC(=O)NC1=O [Example 5] = 8.15

API: the following record is the query input.
Which pIC50 is reported for this compound? C[C@]1(CS(=O)(=O)N2CC=C(C#Cc3ccccn3)CC2)NC(=O)NC1=O [WO 02/074767, page 119, reference compound]
4.95
